tested on: HCT116; test: efficacy (fitted maximal change in viability relative to DMSO control); higher = less cytotoxic (negative = loss of viability); conditions: 48 h;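 also: Luminescence-based viability readout, five doses per compound, normalized against on-plate DMSO and empty-well controls, followed by dose-response curve fitting for every drug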
Structures can show the parent of a compound that is named as a salt.
Categorize each record by its efficacy using interval 1 (below -50%), interval 2 (-50% to below -20%), interval 3 (-20% or more)

For orientation, consider the following solved cases.
{"compound": "COC1CCC(C(=O)c2ccc3nc4c(cc3c2)CCCO4)CC1 (stereo unspecified)", "class": "interval 3"}
{"compound": "Clc1ccc2ncc(-c3cccc(NC4CNC4)n3)n2c1", "class": "interval 3"}
{"compound": "COc1ccc2c(c1)[C@]1(C[C@H]1c1ccc3c(/C=C/c4ccc(CN5C[C@@H](C)O[C@@H](C)C5)cc4)n[nH]c3c1)C(=O)N2", "class": "interval 1"}
{"compound": "C[C@H](O)[C@H]1[C@@H]2[C@H](C)C(=C(\\N2C1=O)C(O)=O)/S[C@@H]3CN[C@H](CN[S+](N)([O-])=O)C3 [Doripenem]", "class": "interval 3"}
{"compound": "COC1=CC2=C(C=C1OC)[C@H]3[C@@H](CO2)OC4=C(C=CC5=C4\\C=C/C(C)(C)O5)C3=O [Deguelin]", "class": "interval 1"}
{"compound": "CCN(C1CCOCC1)C2=C(C)C(=CC(=C2)C3=CC=C(CN4CCOCC4)C=C3)C(=O)NC\\C5=C(C)\\C=C(C)/NC5=O [Tazemetostat]", "class": "interval 1"}
{"compound": "C[C@H]1CC2[C@@H]3CCC/4=C/C(=O)/C=C\\[C@]4(C)[C@@]3(F)[C@@H](O)C[C@]2(C)[C@@]1(O)C(=O)CO (stereo partly specified) [BETAMETHASONE]", "class": "interval 3"}
{"compound": "CCn1c(=O)c2c(nc(/C=C/c3ccc(OC)c(OC)c3)n2C)n(CC)c1=O [Istradefylline]", "class": "interval 3"}
{"compound": "Cc1ccc(-c2ncc(Cl)cc2-c2ccc([S+](C)(=O)[O-])cc2)cn1 [Etoricoxib]", "class": "interval 3"}
{"compound": "C#CCN[C@@H]1CCc2ccccc21 [Rasagiline mesylate]", "class": "interval 3"}

stdin: Field: class (efficacy) — entry: Cc1cn(-c2cc(NC(=O)c3ccc(C)c(Nc4nccc(-c5cccnc5)n4)c3)cc(C(F)(F)F)c2)cn1 [Nilotinib]
stdout: interval 2

stdin: Field: class (efficacy) — entry: CCCCC(C)(C)[C@H](O)/C=C/[C@H]1[C@H](O)CC(=O)[C@@H]1C/C=C\CCCC(=O)O [16,16-dimethyl PGE2]
stdout: interval 1

stdin: Field: class (efficacy) — entry: CC1=CC(=O)c2ccccc2C1=O [Menadione]
stdout: interval 3

stdin: Field: class (efficacy) — entry: COc1cccc(OCCCN)c1-c1cc(Nc2cnc(C#N)cn2)n[nH]1 [Prexasertib]
stdout: interval 1

stdin: Field: class (efficacy) — entry: C[C@H]1COCCN1c1cc(C2([S+](=O)([O-])C3CC3)CC2)nc(-c2ccc(NC(=S)NCCO)cc2)n1 [AZD-3147]
stdout: interval 1

stdin: Field: class (efficacy) — entry: CCCCOc1nc(N)c2c(n1)N(Cc1cccc(CN3CCCC3)c1)CC(=O)N2 [Vesatolimod]
stdout: interval 2

stdin: Field: class (efficacy) — entry: CN(C)CCOc1ccc(/C(=C(/CCCl)c2ccccc2)c2ccccc2)cc1 [Toremifene citrate]
stdout: interval 1

stdin: Field: class (efficacy) — entry: Cn1cc(/C=C2\C(=O)Nc3cccnc32)c2ccccc21
stdout: interval 2
